Listed here: items and their measured Ki.
Target: C-X-C chemokine receptor type 3 (Homo sapiens, UniProt P49682)
Sequence (P49682 whole entry): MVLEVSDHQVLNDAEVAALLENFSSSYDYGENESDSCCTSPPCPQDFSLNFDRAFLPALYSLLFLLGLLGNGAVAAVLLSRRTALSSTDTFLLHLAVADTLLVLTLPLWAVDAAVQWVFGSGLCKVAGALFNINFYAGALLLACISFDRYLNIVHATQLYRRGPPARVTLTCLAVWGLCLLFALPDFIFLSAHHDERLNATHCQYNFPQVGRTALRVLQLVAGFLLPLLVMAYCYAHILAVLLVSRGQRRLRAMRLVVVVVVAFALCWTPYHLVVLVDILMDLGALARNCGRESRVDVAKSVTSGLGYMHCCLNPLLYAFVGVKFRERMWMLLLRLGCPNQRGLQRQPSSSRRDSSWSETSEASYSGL
Experiment: Antagonist activity at human CXCR3 expressed in CHO cells by [35S]GTP-gamma-S binding assay
Assay type: functional, cell-based
Report field: quantity (unit follows the number).

Below are worked cases with known answers.
[
  {
    "Compound": "O=C(Nc1ccc(-c2ccccc2)s1)NC1CCN(C/C2=C/CCCCCC2)CC1",
    "Ki": "108 nM"
  },
  {
    "Compound": "CC1(C)[C@H]2CC=C(CN3CCC(NC(=O)Nc4ccc(OC(F)(F)F)cc4)CC3)[C@@H]1C2",
    "Ki": "175 nM"
  },
  {
    "Compound": "O=C(Nc1ccc2ccccc2c1)NC1CCN(CCCc2ccccc2)CC1",
    "Ki": "2200 nM"
  }
]

// field: Ki; key: CC1(C)[C@H]2CC=C(CN3CCC(NC(=O)Nc4cncc(-c5cccs5)c4)CC3)[C@@H]1C2 ; value = 70 nM

// field: Ki; key: CC1(C)[C@H]2CC=C(CN3CCC(NC(=O)Nc4ccc(-c5ccc(C(F)(F)F)cc5)s4)CC3)[C@@H]1C2 ; value = 39 nM

// field: Ki; key: O=C(Nc1cccc(Cl)c1)NC1CCN(C/C2=C/CCCCCC2)CC1 ; value = 201 nM

// field: Ki; key: O=C(Nc1ccc2ccccc2c1)NC1CCN(CCc2ccccc2)CC1 ; value = 1300 nM

// field: Ki; key: O=C(Nc1cc(Cl)nc(Cl)c1)NC1CCN(C/C2=C/CCCCCC2)CC1 ; value = 3400 nM

// field: Ki; key: CC1(C)[C@H]2CC=C(CN3CCC(NC(=O)Nc4cc(C(F)(F)F)ccc4F)CC3)[C@@H]1C2 ; value = 229 nM

src = ChEMBL document CHEMBL1143784
